# Test system: xylene-induced ear swelling in Kunming mice
# ASSAY EXPLANATION: Xylene-induced ear swelling in mice
# Type: in vivo, mouse
# STUDY CONDITIONS: 40 mg/kg once daily for 5 days; ear swelling vs control
Where no end group is shown, it is not given here.
Simple rule here: Inhibition rate less than 20% is t, otherwise f.

Consider the following illustrative entries.
> print(dat)
                                  substance                     target.or.test.system  class
1  mPEG-bALD20k-Arg-Gly-Ala-Asp-Arg-Ala-Gly-Gly-Gly-Gly-Arg-Gly-Asp ({mPEG‑bALD 20 kDa}-RGADRAGGGGRGD) [mPEG-bALD20k-HM-1]  xylene-induced ear swelling in Kunming mice      f
2  mPEG-SC20k-Arg-Gly-Ala-Asp-Arg-Ala-Gly-Gly-Gly-Gly-Arg-Gly-Asp ({mPEG‑SC 20 kDa}-RGADRAGGGGRGD) [mPEG-SC20k-HM-1]  xylene-induced ear swelling in Kunming mice      f
3  mPEG-ALD20k-Arg-Gly-Ala-Asp-Arg-Ala-Gly-Gly-Gly-Gly-Arg-Gly-Asp ({mPEG‑ALD 20 kDa}-RGADRAGGGGRGD) [mPEG-ALD20k-HM-1]  xylene-induced ear swelling in Kunming mice      f

query: In plain terms, does mPEG2-NHS10k-Arg-Gly-Ala-Asp-Arg-Ala-Gly-Gly-Gly-Gly-Arg-Gly-Asp ({mPEG2‑NHS 10 kDa}-RGADRAGGGGRGD) [mPEG2-NHS10k-HM-1] come in under 20% for Inhibition rate?
result: f

query: In plain terms, does mPEG-ALD40k-Arg-Gly-Ala-Asp-Arg-Ala-Gly-Gly-Gly-Gly-Arg-Gly-Asp ({mPEG‑ALD 40 kDa}-RGADRAGGGGRGD) [mPEG-ALD40k-HM-1] come in under 20% for Inhibition rate?
result: t

query: In plain terms, does mPEG-bALD10k-Arg-Gly-Ala-Asp-Arg-Ala-Gly-Gly-Gly-Gly-Arg-Gly-Asp ({mPEG‑bALD 10 kDa}-RGADRAGGGGRGD) [mPEG-bALD10k-HM-1] come in under 20% for Inhibition rate?
result: f

query: In plain terms, does mPEG-SC40k-Arg-Gly-Ala-Asp-Arg-Ala-Gly-Gly-Gly-Gly-Arg-Gly-Asp ({mPEG‑SC 40 kDa}-RGADRAGGGGRGD) [mPEG-SC40k-HM-1] come in under 20% for Inhibition rate?
result: t

----------
# Tested on: mouse spleen lymphocytes
# ASSAY EXPLANATION: ConA-stimulated mouse spleen lymphocyte proliferation (MTT)
# Assay type: cell-based
# STUDY CONDITIONS: 10 μg/mL, ConA 5 μg/mL, 48 h
Where no end group is shown, it is not given here.
Each item that follows carries a reported A570 nm/A630 nm.
Output: the number by itself.

> print(dat)
                                  substance  recorded.result
1  mPEG-SC10k-Arg-Gly-Ala-Asp-Arg-Ala-Gly-Gly-Gly-Gly-Arg-Gly-Asp ({mPEG‑SC 10 kDa}-RGADRAGGGGRGD) [mPEG-SC10k-HM-1]           0.6234
2  mPEG-ALD5k-Arg-Gly-Ala-Asp-Arg-Ala-Gly-Gly-Gly-Gly-Arg-Gly-Asp ({mPEG‑ALD 5 kDa}-RGADRAGGGGRGD) [mPEG-ALD5k-HM-1]           0.5448

query: Look up mouse spleen lymphocytes data: A570 nm/A630 nm of mPEG2-NHS5k-Arg-Gly-Ala-Asp-Arg-Ala-Gly-Gly-Gly-Gly-Arg-Gly-Asp ({mPEG2‑NHS 5 kDa}-RGADRAGGGGRGD) [mPEG2-NHS5k-HM-1] , then report it.
result: 0.5624

----------
Each item that follows carries a reported Joint swelling.
# Tested on: adjuvant arthritis (AA) SD rats
# ASSAY EXPLANATION: Adjuvant arthritis (AA) rat model
# Type: in vivo
# STUDY CONDITIONS: 40 mg/kg subcutaneous once every three days; AA SD rats
Where no end group is shown, it is not given here.
Answer format: numeric, mm implied, no suffix.

For orientation, consider the following solved cases.
> print(dat)
                                  substance  recorded.result
1  mPEG-SC20k-Arg-Gly-Ala-Asp-Arg-Ala-Gly-Gly-Gly-Gly-Arg-Gly-Asp ({mPEG‑SC 20 kDa}-RGADRAGGGGRGD) [mPEG-SC20k-HM-1]             0.81
2  mPEG-bALD20k-Arg-Gly-Ala-Asp-Arg-Ala-Gly-Gly-Gly-Gly-Arg-Gly-Asp ({mPEG‑bALD 20 kDa}-RGADRAGGGGRGD) [mPEG-bALD20k-HM-1]             0.77
3  mPEG2-NHS20k-Arg-Gly-Ala-Asp-Arg-Ala-Gly-Gly-Gly-Gly-Arg-Gly-Asp ({mPEG2‑NHS 20 kDa}-RGADRAGGGGRGD) [mPEG2-NHS20k-HM-1]             0.80

query: Indicate its recorded Joint swelling; the substance in question is mPEG-ALD20k-Arg-Gly-Ala-Asp-Arg-Ala-Gly-Gly-Gly-Gly-Arg-Gly-Asp ({mPEG‑ALD 20 kDa}-RGADRAGGGGRGD) [mPEG-ALD20k-HM-1]
result: 0.76

----------
Each item that follows carries a reported Swelling.
# Tested on: carrageenan-induced toe swelling in SD rats
# ASSAY EXPLANATION: Carrageenan-induced acute toe swelling in rats
# Assay type: in vivo, rat
# Design: unit not given here
# STUDY CONDITIONS: 80 mg/kg once a day for 3 days; 7 h after carrageenan
Where no end group is shown, it is not given here.
Output: the number by itself.

> print(dat)
                                  substance                     target.or.test.system  recorded.result
1  mPEG-ALD40k-Arg-Gly-Ala-Asp-Arg-Ala-Gly-Gly-Gly-Gly-Arg-Gly-Asp ({mPEG‑ALD 40 kDa}-RGADRAGGGGRGD) [mPEG-ALD40k-HM-1]  carrageenan-induced toe swelling in SD rats             0.33

query: Indicate its recorded Swelling; the substance in question is mPEG2-NHS40k-Arg-Gly-Ala-Asp-Arg-Ala-Gly-Gly-Gly-Gly-Arg-Gly-Asp ({mPEG2‑NHS 40 kDa}-RGADRAGGGGRGD) [mPEG2-NHS40k-HM-1]
result: 0.35

query: Indicate its recorded Swelling; the substance in question is mPEG-ALD20k-Arg-Gly-Ala-Asp-Arg-Ala-Gly-Gly-Gly-Gly-Arg-Gly-Asp ({mPEG‑ALD 20 kDa}-RGADRAGGGGRGD) [mPEG-ALD20k-HM-1]
result: 0.32

query: Indicate its recorded Swelling; the substance in question is mPEG-SC20k-Arg-Gly-Ala-Asp-Arg-Ala-Gly-Gly-Gly-Gly-Arg-Gly-Asp ({mPEG‑SC 20 kDa}-RGADRAGGGGRGD) [mPEG-SC20k-HM-1]
result: 0.32

query: Indicate its recorded Swelling; the substance in question is mPEG-SC40k-Arg-Gly-Ala-Asp-Arg-Ala-Gly-Gly-Gly-Gly-Arg-Gly-Asp ({mPEG‑SC 40 kDa}-RGADRAGGGGRGD) [mPEG-SC40k-HM-1]
result: 0.34

query: Indicate its recorded Swelling; the substance in question is mPEG2-NHS20k-Arg-Gly-Ala-Asp-Arg-Ala-Gly-Gly-Gly-Gly-Arg-Gly-Asp ({mPEG2‑NHS 20 kDa}-RGADRAGGGGRGD) [mPEG2-NHS20k-HM-1]
result: 0.34

----------
# STUDY CONDITIONS: in vivo
Where no end group is shown, it is not given here.
Tick 1 if CL is 0.2 mL/min/kg or greater. Tick -1 if CL is less than 0.2 mL/min/kg.

> print(dat)
                                  substance  class
1  mPEG2-NHS20k-Arg-Gly-Ala-Asp-Arg-Ala-Gly-Gly-Gly-Gly-Arg-Gly-Asp ({mPEG2‑NHS 20 kDa}-RGADRAGGGGRGD) [mPEG2-NHS20k-HM-1]      1

Attention now turns to another entry.
query: # check: CL of mPEG2-NHS10k-Arg-Gly-Ala-Asp-Arg-Ala-Gly-Gly-Gly-Gly-Arg-Gly-Asp ({mPEG2‑NHS 10 kDa}-RGADRAGGGGRGD) [mPEG2-NHS10k-HM-1] is greater than or equal to 0.2 mL/min/kg
result: 1

Where these numbers come from: patent US10869931B2
